EXPERIMENT: Cytotoxicity
Assay type: cell-based
CONDITION SET: human, PCS 201-010 normal dermal fibroblast cells
OBSERVED PROPERTY: IC50 at 48 h

Problem: So what does the record say about IC50 at 48 h for C#CCOCCCCCCCCCCCCOc1ccc(-c2nc3ccc(-c4nc5ccc(N6CCN(C)CC6)cc5[nH]4)cc3[nH]2)cc1 [Compound 8] ?
Result: > 10 µM

// provenance: paper PMC12125705
